biological target: mouse L―M cells (Mus musculus); assay: Inhibition of sterol synthesis in cell culture (14C sterol from 14C acetic acid); format: cell-based; details: mouse L-M cell monolayers, 3 hour incubation with 14C acetate; read-out: IC50 in inhibiting HMG-CoA reductase
Sequence (Q01237 whole entry): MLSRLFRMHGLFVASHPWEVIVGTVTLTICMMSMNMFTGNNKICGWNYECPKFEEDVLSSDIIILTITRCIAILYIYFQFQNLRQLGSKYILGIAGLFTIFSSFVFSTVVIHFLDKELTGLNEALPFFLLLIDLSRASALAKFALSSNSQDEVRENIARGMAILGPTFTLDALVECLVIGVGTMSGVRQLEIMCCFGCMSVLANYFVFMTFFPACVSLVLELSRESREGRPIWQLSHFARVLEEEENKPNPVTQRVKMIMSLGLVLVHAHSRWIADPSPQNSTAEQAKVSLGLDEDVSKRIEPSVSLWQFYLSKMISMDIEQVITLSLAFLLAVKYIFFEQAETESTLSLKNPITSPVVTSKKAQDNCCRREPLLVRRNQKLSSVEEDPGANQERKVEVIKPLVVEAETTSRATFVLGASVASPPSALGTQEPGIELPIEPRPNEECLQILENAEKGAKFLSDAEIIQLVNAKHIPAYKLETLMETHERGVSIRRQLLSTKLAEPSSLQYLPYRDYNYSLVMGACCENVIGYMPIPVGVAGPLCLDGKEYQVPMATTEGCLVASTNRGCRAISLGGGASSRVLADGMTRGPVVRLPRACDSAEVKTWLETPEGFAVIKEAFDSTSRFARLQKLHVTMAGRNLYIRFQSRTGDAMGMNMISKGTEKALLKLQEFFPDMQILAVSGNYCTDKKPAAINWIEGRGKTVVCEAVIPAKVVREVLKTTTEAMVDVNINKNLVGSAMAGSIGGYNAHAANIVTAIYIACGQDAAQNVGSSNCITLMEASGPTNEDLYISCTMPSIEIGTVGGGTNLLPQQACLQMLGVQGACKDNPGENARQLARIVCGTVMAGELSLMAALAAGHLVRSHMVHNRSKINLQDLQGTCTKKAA
Property Name: IC50 (nM)

[A] CCC(C)C(=O)O[C@H]1C[C@@H](C)C[C@@H]2C=C[C@H](C)[C@H](CC[C@@H]3C[C@@H](O)CC(=O)O3)[C@@H]12 (some centres unmarked) [Compound II]
[B] CC[C@H](C)C(=O)O[C@H]1CCC=C2C=C[C@H](C)[C@H](CC[C@@H]3C[C@@H](O)CC(=O)O3)[C@H]21 [ML236B, compactin, reference compound]
[Q] Kindly identify which of A and B has the larger recorded IC50 value. Output the label that corresponds to your choice.
[A] B
(B: 46 nM, A: 17 nM)
